Target: UniProtKB P0DTD1
Experiment: biochemical
Settings: Table A, class symbols, read-out: SARS-Cov-2 (IC50)
pIC50: −log10 of the molar value.
metric: pIC50

Given the entry CC(C)C[C@@H](C(=O)N1C[C@@]2(C[C@H]1C#N)Oc1cc(F)cc(F)c1NC2=O)N(C)C(=O)[C@H](CC1CC1)NC(=O)C(F)(F)F , what pIC50 was observed with UniProtKB P0DTD1?
> 7.70

====

Test: Cytotoxicity in HeLa cells without addition of OC43 virus (in parallel)
Details: human, HeLa cells, without OC43 virus
The following compounds are listed with their measured CC50 at 6 days values.

N#C[C@@H]1C[C@]2(CN1C(=O)[C@H](CC1CC1)NC(=O)[C@H](CC1CC1)NC(=O)C(F)(F)F)Oc1cc(F)cc(F)c1NC2=O [Compound 78] :: > 10 µM

So what's the measured CC50 at 6 days for this one? COC[C@H](NC(=O)C(F)(F)F)C(=O)N(C)[C@@H](CC(C)C)C(=O)N1C[C@@]2(C[C@H]1C#N)Oc1cc(F)cc(F)c1NC2=O [Compound 72]
> 10 µM

Recorded CC50 at 6 days for CCC1C[C@@]2(C[C@@H](C#N)N(C(=O)[C@H](CC(C)C)N(C)C(=O)[C@H](C)NC(=O)C(F)(F)F)C2)C(=O)N1 (some centres unmarked) [Compound 23] , please?
> 10 µM

Which value of CC50 at 6 days has been reported for CN(C(=O)[C@H](CC1CC1)NC(=O)C(F)(F)F)[C@@H](CC1CC1)C(=O)N1C[C@@]2(C[C@H]1C#N)Oc1c(F)ccc(F)c1NC2=O [Compound 57] in the records?
> 10 µM

// lookup CC50 at 6 days for C[C@H](NC(=O)C(F)(F)F)C(=O)N(C)[C@@H](CC1(C)CC1)C(=O)N1C[C@@]2(C[C@H]1C#N)Oc1cccnc1NC2=O [Compound 183]
> 10 µM

Value lookup for CC50 at 6 days; key = CC(C)C[C@@H](C(=O)N1C[C@]2(CCC3(CC3)NC2=O)C[C@H]1C#N)N(C)C(=O)[C@H](C)NC(=O)C(F)(F)F [Compound 20]
> 10 µM

For the compound shown here, CN(C(=O)[C@H](CC1CC1)NC(=O)C(F)(F)F)[C@@H](CC1CC1)C(=O)N1C[C@@]2(C[C@H]1C#N)Oc1ccccc1C(C)(C)NC2=O [Compound 228] , give the reported CC50 at 6 days.
> 10 µM

Quick one: CC50 at 6 days of C[C@H](NC(=O)C(F)(F)F)C(=O)N(C)[C@@H](CC1CC1)C(=O)N1C[C@@]2(C[C@H]1C#N)Oc1c(cccc1C1CC1)NC2=O [Compound 99] ?
> 10 µM

====

Tested on: SARS-CoV-2 B.1.1.7 lineage
Test: microbe, parasite or virus in culture
Type: cell-based
Conditions: Severe acute respiratory syndrome coronavirus 2; Table C; SARS-CoV-2 B.1.1.7 in A549-dual_ACE2_TMPRSS2 cells, class symbols; read-out: A549-dual_ACE2_TMPRSS2 (EC50)
// EC50 lookup, one value per entry

Example compounds with recorded EC50:
CC(C)C[C@@H](C(=O)N1C[C@]2(CCC3(CC3)NC2=O)C[C@H]1C#N)N(C)C(=O)[C@H](C)NC(=O)C(F)(F)F [Compound 20] :: 100 to 1000 nM
CC(C)N1CC2(CC2)C[C@H]1C(=O)N(C)[C@@H](CC1CC1)C(=O)N1C[C@@]2(C[C@H]1C#N)Oc1cc(F)cc(F)c1NC2=O [Compound 116] :: 100 to 1000 nM
CC(C)C[C@@H](C(=O)N1C[C@]2(CC(c3ccccc3)=NNC2=O)C[C@H]1C#N)N(C)C(=O)[C@H](C)NC(=O)C(F)(F)F [Example 29] :: 100 to 1000 nM

Entry under review: COc1ccc(C[C@@H](NC(=O)C(F)(F)F)C(=O)N(C)[C@@H](CC2CC2)C(=O)N2C[C@@]3(C[C@H]2C#N)Oc2cccnc2NC3=O)cc1 [Compound 149] . Reported EC50?
< 100 nM

What value of EC50 has been recorded for this entry: C[C@H](NC(=O)C(F)(F)F)C(=O)N(C)[C@@H](CC1CC1)C(=O)N1C[C@@]2(C[C@H]1C#N)Oc1ccccc1NC2=O [Compound 160]
< 100 nM

// EC50 lookup, key: C[C@H](NC(=O)C(F)(F)F)C(=O)N(C)[C@@H](CC1CC1)C(=O)N1C[C@@]2(C[C@H]1C#N)Oc1c(cccc1C1CC1)NC2=O [Compound 99]
< 100 nM

====

The following molecules are shown together with reported IC50 values.
Target: UniProt:P0DTD1
Test: biochemical
Conditions: Table A, class symbols, read-out: SARS-Cov-2 (IC50)

Examples from the recorded data:
C[C@H](NC(=O)C(F)(F)F)C(=O)N[C@@H](CC(C)(C)C)C(=O)N1C[C@@]2(C[C@H]1C#N)Oc1cc(F)cc(F)c1NC2=O :: 20 to 200 nM
C[C@H](NC(=O)C(F)(F)F)C(=O)N(C)[C@@H](CC1CC1)C(=O)N1C[C@@]2(C[C@H]1C#N)Oc1cc(F)cc(F)c1NC2=O :: < 20 nM
COC(=O)N[C@@H](CC1CC1)C(=O)N(C)[C@@H](CC1CC1)C(=O)N1C[C@@]2(C[C@H]1C#N)Oc1ncccc1NC2=O :: < 20 nM

Returns the measured IC50 for the input molecule. Input: CN(C(=O)[C@@H](CC1CC1)NC(=O)C(F)(F)F)[C@@H](CC1CC1)C(=O)N1C[C@@]2(C[C@H]1C#N)Oc1cccnc1NC2=O
< 20 nM

Which IC50 is reported for this molecule? CN(C(=O)C1(NC(=O)C(F)(F)F)CCCCC1)[C@@H](CC1CC1)C(=O)N1C[C@@]2(C[C@H]1C#N)Oc1cccnc1NC2=O
200 to 2000 nM

Can you look up the measured IC50 of CN(C(=O)C(O)c1ccc(F)cc1)[C@@H](CC1CC1)C(=O)N1C[C@@]2(C[C@H]1C#N)Oc1cc(F)cc(F)c1NC2=O (stereo partly drawn) for me?
< 20 nM

====

Some compounds, each annotated with its measured IC50.
Biological target: SARS-Cov-2 3CLpro (Severe acute respiratory syndrome coronavirus 2)
Test: biochemical
Details: Table A, class symbols, read-out: SARS-Cov-2 (IC50)

Use these answered entries as a reference point.
CN(C(=O)C(=O)Nc1ccc(F)cc1)[C@@H](CC1CC1)C(=O)N1C[C@@]2(C[C@H]1C#N)Oc1cccnc1NC2=O :: 200 to 2000 nM
CC(C)C[C@H](NC(=O)C(F)(F)F)C(=O)N(C)[C@@H](CC(C)C)C(=O)N1C[C@@]2(C[C@H]1C#N)Oc1cc(F)cc(F)c1NC2=O :: < 20 nM
CC(C)C[C@@H](C(=O)N1C[C@]2(C[C@H]1C#N)C(=O)Nc1ccccc1C2(C)O)N(C)C(=O)[C@H](C)NC(=O)C(F)(F)F (stereo partly drawn) :: 200 to 2000 nM
CN(C(=O)c1cc2cccnc2[nH]1)[C@@H](CC1CC1)C(=O)N1C[C@@]2(C[C@H]1C#N)Oc1cc(F)cc(F)c1NC2=O :: 20 to 200 nM
CC(C)C[C@@H](C(=O)N1C[C@@]2(C[C@H]1C#N)Oc1cc(F)c(F)cc1NC2=O)N(C)C(=O)[C@H](C)NC(=O)C(F)(F)F :: < 20 nM

Lab note: next compound to report on.
Requested read-out: IC50. Entry: CC1=N[C@@]2(C[C@@H](C#N)N(C(=O)[C@H](CC(C)C)N(C)C(=O)[C@H](C)NC(=O)C(F)(F)F)C2)C(=O)N1
20 to 200 nM

====

Assay: Cytotoxicity in HeLa cells without addition of OC43 virus (in parallel)
Conditions: human, HeLa cells, without OC43 virus
metric: CC50 at 6 days

These recorded examples may help you get a feel for the data.
C[C@@H](C(=O)N(C)[C@@H](CC1CC1)C(=O)N1C[C@@]2(C[C@H]1C#N)Oc1cccnc1NC2=O)n1cc(C2CC2)nn1 :: > 10 µM
CN(C(=O)[C@H](CC1CC1)NS(=O)(=O)C1(C)CC1)[C@@H](CC1CC1)C(=O)N1C[C@@]2(C[C@H]1C#N)Oc1cccnc1NC2=O :: > 10 µM

What value of measured CC50 at 6 days is listed for C[C@H](NC(=O)C(F)(F)F)C(=O)N(C)[C@@H](CC1CC1)C(=O)N1C[C@@]2(C[C@H]1C#N)Oc1cc(F)cc(F)c1NC2=O ?
> 10 µM

====

Target: SARS-Cov-2 3CLpro (Severe acute respiratory syndrome coronavirus 2, UniProt P0DTD1)
Test: biochemical
Details: Table A, class symbols, read-out: SARS-Cov-2 (IC50)
pIC50: −log10 of the molar value.
pIC50 values for the molecules below.

Example entries and their recorded answers appear below.
COc1ccc(C[C@@H](NC(=O)C(F)(F)F)C(=O)N(C)[C@@H](CC2CC2)C(=O)N2C[C@@]3(C[C@H]2C#N)Oc2cccnc2NC3=O)cc1 :: > 7.70
C[C@H](NC(=O)C(F)(F)F)C(=O)N(C)[C@@H](CC1CC1)C(=O)N1C[C@@]2(C[C@H]1C#N)Oc1cccc(F)c1NC2=O :: > 7.70
CC(C)C[C@@H](C(=O)N1C[C@@]2(C[C@H]1C#N)OCc1ccccc1NC2=O)N(C)C(=O)c1cc2c(F)cc(F)cc2[nH]1 :: 6.70 to 7.70
CN(C(=O)[C@H](CC1CC1)NC(=O)C(F)(F)F)[C@@H](CC1CC1)C(=O)N1C[C@@]2(C[C@H]1C#N)Oc1cc(F)cc(C#N)c1NC2=O (single isomer, unassigned) :: 6.70 to 7.70
CO[C@H](C)[C@H](NC(=O)C(F)(F)F)C(=O)N(C)[C@@H](CC1CC1)C(=O)N1C[C@@]2(C[C@H]1C#N)Oc1cccnc1NC2=O :: > 7.70

Pending molecule:
Can you look up pIC50 on SARS-Cov-2 3CLpro (Severe acute respiratory syndrome coronavirus 2, UniProt P0DTD1) for COC[C@H](NC(=O)C(F)(F)F)C(=O)N(C)[C@@H](CC(C)C)C(=O)N1C[C@@]2(C[C@H]1C#N)Oc1cc(F)cc(F)c1NC2=O ?
> 7.70
